Target: Candida albicans acid protease (Candida albicans)
Construct: endogenous in cells
Assay: In vitro inhibitor assay, microtiter assay with fluorogenic substrate A78331
Structures can show the parent of a compound that is named as a salt.
Measured pIC50, listed per entry.
To interpret pIC50, take it as minus log10 of a concentration measured in moles per litre.

Solved entries (count: 3):
1. CCCC[C@@H](C(=O)N[C@@H](CC1CCCCC1)[C@@H](O)[C@@H](O)CC(C)C)N1CCN(S(=O)(=O)c2ccc(NC)cc2)[C@H](Cc2ccccc2)C1=O | 7.07
2. CCCCNC(=O)[C@H](C[C@H](O)[C@H](CC1CCCCC1)NC(=O)[C@H](CCCC)N1CCN(C(=O)N2CCC(OCOC)CC2)[C@@H](Cc2ccccc2)C1=O)C(C)C | 8.35
3. CCCCNC(=O)[C@H](C[C@H](O)[C@H](CC1CCCCC1)NC(=O)[C@H](CCCC)N1CCN(C(=O)N2CCN(C)CC2)[C@H](Cc2ccccc2)C1=O)C(C)C [Example 1, Hydrochloride] | 8.89

What reported pIC50 corresponds to CCCC[C@@H](C(=O)N[C@@H](CC1CCCCC1)[C@@H](O)C[C@@H](C(=O)NCCCN1CCOCC1)C(C)C)N1CCN(C(=O)N2CCC(OCOC)CC2)[C@@H](Cc2ccccc2)C1=O on Candida albicans acid protease (Candida albicans)? 8.30

Likewise for CCCC[C@@H](C(=O)N[C@@H](CC1CCCCC1)[C@@H](O)C[C@@H](C(=O)NCCN(C)C)C(C)C)N1CCN(C(=O)N2CCN(C)CC2)[C@H](Cc2ccccc2)C1=O ? 8.21

* * *

Target: Candida albicans acid protease (Candida albicans, UniProt P0DJ06)
Construct: endogenous in cells
Sequence (P0DJ06 57-398): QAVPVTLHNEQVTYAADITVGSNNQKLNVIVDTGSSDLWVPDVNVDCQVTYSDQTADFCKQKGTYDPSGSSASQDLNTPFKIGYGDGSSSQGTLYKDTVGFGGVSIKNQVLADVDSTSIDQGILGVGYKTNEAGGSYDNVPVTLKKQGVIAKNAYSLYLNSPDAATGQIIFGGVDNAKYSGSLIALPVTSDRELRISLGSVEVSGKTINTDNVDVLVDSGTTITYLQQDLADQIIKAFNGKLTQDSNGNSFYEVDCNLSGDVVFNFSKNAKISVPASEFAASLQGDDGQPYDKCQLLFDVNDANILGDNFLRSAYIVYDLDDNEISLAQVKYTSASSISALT
Assay: In vitro inhibitor assay, microtiter assay with fluorogenic substrate A78331
The reader will find reported pIC50 values listed item by item below.
The read-out pIC50 is expressed as -log10 of concentration in moles per litre.

1. CCCC[C@@H](C(=O)N[C@@H](CC1CCCCC1)[C@@H](O)C[C@@H](C(=O)NCCCN1CCOCC1)C(C)C)N1CCN(C(=O)N2CCN(C)CC2)[C@@H](Cc2ccccc2)C1=O | 8.42
2. CCCC[C@@H](C(=O)N[C@@H](CC1CCCCC1)[C@@H](O)C[C@@H](C(=O)NCCCN1CCOCC1)C(C)C)N1CCN(S(=O)(=O)N2CCN(C)CC2)[C@@H](Cc2ccccc2)C1=O | 8.42
3. CCCC[C@@H](C(=O)N[C@@H](CC1CCCCC1)[C@@H](O)C[C@@H](C(=O)NCCCN(C)C)C(C)C)N1CCN(C(=O)N2CCN(C)CC2)[C@H](Cc2ccccc2)C1=O | 8.42
4. CCCCNC(=O)[C@H](C[C@H](O)[C@H](CC1CCCCC1)NC(=O)[C@H](CCCC)N1CCN(S(=O)(=O)N2CCN(C)CC2)[C@@H](Cc2ccccc2)C1=O)C(C)C | 8.57

Reported pIC50 for Candida albicans acid protease (Candida albicans, UniProt P0DJ06), given CCCCNC(=O)[C@H](C[C@H](O)[C@H](CC1CCCCC1)NC(=O)[C@H](CCCC)N1CCN(S(=O)(=O)c2ccc(OC)cc2)[C@H](Cc2ccccc2)C1=O)C(C)C ? 7.88

CCCCNC(=O)[C@H](C[C@H](O)[C@H](CC1CCCCC1)NC(=O)[C@H](CCCC)N1C[C@@H](Cc2ccccc2)N(S(=O)(=O)c2ccc(C)cc2)CC1=O)C(C)C , same question. 7.52
